biological target: Human CB1 receptor (Homo sapiens, UniProt P21554); construct: purchased Receptor Biology; experiment: hCB1 receptor binding (3H-CP55,940 displacement)
Sequence (P21554 whole entry): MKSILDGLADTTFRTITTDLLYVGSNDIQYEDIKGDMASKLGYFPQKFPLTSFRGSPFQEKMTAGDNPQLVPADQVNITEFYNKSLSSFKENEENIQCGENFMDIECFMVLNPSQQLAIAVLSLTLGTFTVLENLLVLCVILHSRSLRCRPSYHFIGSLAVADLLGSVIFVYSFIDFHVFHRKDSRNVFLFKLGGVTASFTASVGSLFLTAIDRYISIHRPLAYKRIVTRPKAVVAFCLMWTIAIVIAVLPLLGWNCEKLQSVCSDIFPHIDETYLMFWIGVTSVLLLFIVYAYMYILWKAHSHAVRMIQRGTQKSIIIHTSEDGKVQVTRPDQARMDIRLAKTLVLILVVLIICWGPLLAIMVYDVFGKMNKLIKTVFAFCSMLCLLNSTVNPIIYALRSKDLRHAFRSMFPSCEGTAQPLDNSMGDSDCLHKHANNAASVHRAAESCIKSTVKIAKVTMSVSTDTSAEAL
metric name: Ki (nM)
Write the answer as a number in nM, unit excluded.

query: Sample `O=C(Nc1ccc[n+]([O-])c1C(=O)NCC1CCCCC1)c1cccc2ccccc12` — what was its Ki?
result: 47

Data origin: patent US20070219254A1
